# MEASURED ON: T1, CARM1 fused to Gal4AD (pGAD10.CARM1) (mouse, UniProt Q4AE70 3-651 (rat entry))
# T1 construct: Yeast two-hybrid prey; also called CARM1-AD hybrid protein; CARM1(3-608)
# T1 sequence: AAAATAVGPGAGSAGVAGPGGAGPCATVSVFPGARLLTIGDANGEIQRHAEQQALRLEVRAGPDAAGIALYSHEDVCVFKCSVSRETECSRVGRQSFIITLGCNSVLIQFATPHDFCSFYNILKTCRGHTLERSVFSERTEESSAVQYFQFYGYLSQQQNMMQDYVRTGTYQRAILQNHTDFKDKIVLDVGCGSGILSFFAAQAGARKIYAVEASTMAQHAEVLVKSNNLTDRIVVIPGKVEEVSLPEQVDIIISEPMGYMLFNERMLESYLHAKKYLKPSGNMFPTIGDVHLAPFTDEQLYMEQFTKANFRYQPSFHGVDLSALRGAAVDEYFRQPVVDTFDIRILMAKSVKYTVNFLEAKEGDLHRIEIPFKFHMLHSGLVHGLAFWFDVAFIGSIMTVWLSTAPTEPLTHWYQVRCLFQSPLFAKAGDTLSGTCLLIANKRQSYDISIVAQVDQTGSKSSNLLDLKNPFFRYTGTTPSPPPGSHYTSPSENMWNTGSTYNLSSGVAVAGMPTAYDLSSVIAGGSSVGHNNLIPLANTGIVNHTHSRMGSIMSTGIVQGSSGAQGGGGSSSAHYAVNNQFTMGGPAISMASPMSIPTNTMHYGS
# METHOD NOTES: yeast two-hybrid, β-galactosidase activity
PROPERTY NAME: binding result

Gal4 DBD-GRIP1c C-terminal fragment starting at amino acid 1306 (GRIP1c bisected between 1305 and 1306) (other, UniProt P04386 1-147, looked up) MKLLSSIEQACDICRLKKLKCSKEKPKCAKCLKNNWECRYSPKTKRSPLTRAHLTEVESRLERLEQLFLLIFPREDLDMILKMDSLQDIKALLTGLFVQDNVNKDAVTDRLASVETDMPLTLRQHRISATSSSEESSNKGQRQLTVSSQQPDPGFTGATTPQSPLMSPRMAHTQSPMMQQSQANPAYQPTSDMNGWAQGSMGGNSMFSQQSPPHFGQQANTSMYSNNMNISVSMATNTGGLSSMNQMTGQMSMTSVTSVPTSGLPSMGPEQVNDPALRGGNLFPNQLPGMDMIKQEGDASRKYC ... no binding
Gal4 DBD-GRIP1 amino acids 1121-1210 (N-terminal fragment of GRIP1c bisected between 1210 and 1211) (other, UniProt P04386 1-147, looked up, also called the N-terminal fragment) MKLLSSIEQACDICRLKKLKCSKEKPKCAKCLKNNWECRYSPKTKRSPLTRAHLTEVESRLERLEQLFLLIFPREDLDMILKMDSLQDIKALLTGLFVQDNVNKDAVTDRLASVETDMPLTLRQHRISATSSSEESSNKGQRQLTVSESSIMLEQKPPVFPQQYASQAQMAQGGYNPMQDPNFHTMGQRPNYTTLRMQPRPGLRPTGIVQNQPNQLRLQLQHRLQAQQNRQPLMNQI ... no binding
